// data source = paper PMC9482650

- system: T1, DLG3_3, Q92796
- T1 sequence (Q92796 374-475, limits assumed, looked up): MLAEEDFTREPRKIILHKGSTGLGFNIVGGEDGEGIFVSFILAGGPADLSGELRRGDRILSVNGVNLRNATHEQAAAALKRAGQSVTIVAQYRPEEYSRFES
- experimentSummary: holdup assay
- Design: key: below the threshold = too weak to quantify, mostly under pKd 3.1 to 4
- recordedConditions: plain residues with an end cap or a label only (N-terminal biotin on a linker: ahx)
valueType: pKd

Record NRKREIFSNF [NHERF2, Q15599] . Reported pKd: below the threshold

pKd for RAVEEEESRF [PSCDBP, O60759] is below the threshold

Notebook: SDSSGQEYSL [KCTD3, Q9Y597] , pKd read as below the threshold

Sure, the documented pKd for HNAFLSVTTV [PDZRN4, Q6ZMN7] is below the threshold

Memo: GYDWGPATDL [TJP3, O95049] , reported pKd: below the threshold

Now for another entry.
Per the records, this binder ( RRRKRKRTYL [HPV49-L2, P36762] ) has pKd equal to 4.28
